Reported AC50 for larval growth inhibition values for the following molecules.
tested on: Caenorhabditis elegans N2; assay: AC50 for larval growth inhibition (Hill fit); higher = less potent; settings: exposure time 48 h
metric: AC50 for larval growth inhibition (µM)

In [3]: df
Out[3]:
                                   molecule        experimental_target  bound_type  reported_result
0  CCCCCCCCCCCC[N+](C)(C)C [Dodecyl trimethyl ammonium chloride]  Caenorhabditis elegans N2           =              199
1  CCOC(=O)C(C)Oc1ccc(Oc2cnc3cc(Cl)ccc3n2)cc1 (stereo not given)  Caenorhabditis elegans N2           =             84.1
2                          Clc1cccc(Cl)c1Cl  Caenorhabditis elegans N2           =              122
3  C1CCC(SSC2CCCCC2)CC1 [Dicyclohexyl disulfide]  Caenorhabditis elegans N2           >              200
4  Cc1nn(-c2cc(NS(C)(=O)=O)c(Cl)cc2Cl)c(=O)n1C(F)F  Caenorhabditis elegans N2           =              108
